Target: S. aureus ATCC 29213 FabI (Staphylococcus aureus (strain MRSA252))
Experiment: Staphylococcus aureus FabI enzyme inhibition assay
Type: biochemical
Conditions: 30 minutes at room temperature, pH 6.5
Listing of entries alongside the reported FabI IC50.
Write the number in µg/mL without appending the unit.

Example results:
1. COc1ccccc1C1CCN(C(=O)/C=C/c2cnc3c(c2)CCC(=O)N3)CC1 ... 0.53
2. O=C1CCc2cc(/C=C/C(=O)N3CC=C(c4ccoc4)CC3)cnc2N1 ... 0.48
3. O=C1CCc2cc(/C=C/C(=O)N3CCCCC3)cnc2N1 ... 2.73
4. O=C1CCc2cc(/C=C/C(=O)N3CCC(c4cccc(O)c4)CC3)cnc2N1 ... 0.35
5. O=C1CCc2cc(/C=C/C(=O)N3CC=C(c4cccc(C(F)(F)F)c4)CC3)cnc2N1 ... 1.12

Fill in the recorded FabI IC50 for this molecule, with S. aureus ATCC 29213 FabI (Staphylococcus aureus (strain MRSA252)) as test system: O=C1CCc2cc(/C=C/C(=O)N3CC=CCC3)cnc2N1
3.57

Fill in the recorded FabI IC50 for this molecule, with S. aureus ATCC 29213 FabI (Staphylococcus aureus (strain MRSA252)) as test system: O=C1CCc2cc(/C=C/C(=O)N3CCC(C(=O)c4ccccc4)CC3)cnc2N1
1.74

Fill in the recorded FabI IC50 for this molecule, with S. aureus ATCC 29213 FabI (Staphylococcus aureus (strain MRSA252)) as test system: O=C1CCc2cc(/C=C/C(=O)N3CC=C(c4cccnc4)CC3)cnc2N1
0.67

Fill in the recorded FabI IC50 for this molecule, with S. aureus ATCC 29213 FabI (Staphylococcus aureus (strain MRSA252)) as test system: O=C1CCc2cc(/C=C/C(=O)N3CCC(Cc4ccccc4)CC3)cnc2N1
0.31
